test system: ACHN; test: in vitro renal cancer cell growth inhibition (NCI screen)
# binning rule on cytotoxicity log GI50: group A (below -6 M), group B (-6 M to below -5 M), group C (-5 M or more)

Field: example entries. Status: answers known.
smiles_str=COc1ccc(C(=O)NC2=C(Cl)C(=O)c3ccccc3C2=O)cc1 label_value="group A"
smiles_str=CC(=O)NC1=C(NCc2ccc(Cl)cc2)C(=O)c2ccccc2C1=O label_value="group B"
smiles_str=COc1cc(OC)cc(C(=O)NC2=C(Cl)C(=O)c3ccccc3C2=O)c1 label_value="group A"
smiles_str=Cc1nc2c(n1CCO)C(=O)c1ccccc1C2=O label_value="group C"

Qu. Any idea which band `COc1ccc(CNC2=C(NC(C)=O)C(=O)c3ccccc3C2=O)cc1` is in?
Ans. group B

Qu. Any idea which band `Cc1nc2c(n1CCCl)C(=O)c1ccccc1C2=O` is in?
Ans. group A

Reference for the values: patent US5789431A
